We begin with a simple list: items and their reported pKi.
- Experimental system: M3 muscarinic receptor (Rattus norvegicus)
- Construct: Submandibular glands and heart were isolated and placed in ice cold homogenising buffer; from tissue; host or cells: rat submandibular gland membrane homogenate
- Assay comment: [3H]-N-methylscopolamine radioligand binding assay, rat submandibular gland membranes
- Test context: M3 Ki (nm)
Just so you know, pKi here is -log10 of the concentration in molar units; reply with that number alone.

INSERT INTO assay_data (compound, experimental_result) VALUES
  ('O=C(NC1C2CN(CCc3ccc4c(c3)OCO4)CC21)C(O)(c1ccccc1)C1CCCC1 (centres unmarked)', 7.73);

Now for a further compound.
Data request: Can you share its pKi? I mean this compound: `O=C(N[C@H]1[C@@H]2CN(CCc3ccc4c(c3)OCO4)C[C@@H]21)[C@](O)(c1ccccc1)C1CCCC1`
Data returned: 7.93

---

- Experimental system: M3 muscarinic receptor (Rattus norvegicus, UniProt P08483)
- Construct: Submandibular glands and heart were isolated and placed in ice cold homogenising buffer; from tissue; host or cells: rat submandibular gland membrane homogenate
- Sequence (P08483 whole entry): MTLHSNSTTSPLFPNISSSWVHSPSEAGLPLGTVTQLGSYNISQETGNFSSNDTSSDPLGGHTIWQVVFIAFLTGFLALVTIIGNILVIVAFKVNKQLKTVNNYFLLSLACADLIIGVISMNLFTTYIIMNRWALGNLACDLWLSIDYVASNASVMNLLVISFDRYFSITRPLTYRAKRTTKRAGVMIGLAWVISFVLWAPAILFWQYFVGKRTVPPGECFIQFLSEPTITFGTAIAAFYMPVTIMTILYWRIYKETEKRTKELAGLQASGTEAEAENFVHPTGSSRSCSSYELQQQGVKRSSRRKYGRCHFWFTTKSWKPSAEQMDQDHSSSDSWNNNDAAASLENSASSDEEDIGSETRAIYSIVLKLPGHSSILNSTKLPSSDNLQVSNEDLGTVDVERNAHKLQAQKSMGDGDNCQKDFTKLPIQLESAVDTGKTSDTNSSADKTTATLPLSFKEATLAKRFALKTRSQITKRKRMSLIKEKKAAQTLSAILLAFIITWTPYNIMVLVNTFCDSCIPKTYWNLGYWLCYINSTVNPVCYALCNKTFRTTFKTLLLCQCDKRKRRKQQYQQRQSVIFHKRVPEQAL
- Assay comment: [3H]-N-methylscopolamine radioligand binding assay, rat submandibular gland membranes
- Test context: Receptor Binding Assay Ki (nM) M 3
Listing of entries alongside the reported Ki.
Respond numerically; units are nM and should not be typed.

INSERT INTO measurements (compound, measured_parameter, experimental_result) VALUES
  ('O=C(N[C@H]1[C@@H]2CN(CCc3ccc4c(c3)OCO4)C[C@@H]21)[C@](O)(c1ccccc1)C1CCCC1 [Compound No. 82]', 'Ki', 11.7);

Data request: Can you share its Ki? I mean this compound: O=C(NC1C2CN(CCc3ccc4c(c3)OCO4)CC21)C(O)(c1ccccc1)C1CCCC1 (centres unmarked) [Compound No. 66]
Data returned: 18.4

---

- Experimental system: M2 muscarinic receptor (Rattus norvegicus, UniProt P10980)
- Construct: Submandibular glands and heart were isolated and placed in ice cold homogenising buffer; from tissue; host or cells: rat heart membrane homogenate
- Sequence (P10980 whole entry): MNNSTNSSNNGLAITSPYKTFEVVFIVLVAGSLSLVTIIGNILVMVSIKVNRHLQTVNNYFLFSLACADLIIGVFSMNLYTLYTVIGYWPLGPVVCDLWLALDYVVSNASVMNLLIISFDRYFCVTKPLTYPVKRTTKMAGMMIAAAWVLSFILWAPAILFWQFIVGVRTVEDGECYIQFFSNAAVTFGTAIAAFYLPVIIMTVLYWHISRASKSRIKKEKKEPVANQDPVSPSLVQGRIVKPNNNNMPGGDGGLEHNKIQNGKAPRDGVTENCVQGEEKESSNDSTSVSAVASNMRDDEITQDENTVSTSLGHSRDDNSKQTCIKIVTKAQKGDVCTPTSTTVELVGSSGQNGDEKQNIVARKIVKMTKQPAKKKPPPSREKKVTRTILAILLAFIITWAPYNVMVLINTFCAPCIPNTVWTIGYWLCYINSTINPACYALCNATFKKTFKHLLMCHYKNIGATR
- Assay comment: [3H]-N-methylscopolamine radioligand binding assay, rat heart membranes
- Test context: Table IV; rat heart, [3H]NMS; read-out: Receptor Binding Assay (pKi) M2 (converted)
Below: a set of entries, each annotated with reported Ki.

Take a look at these entries with their results.
INSERT INTO measurements (compound, experimental_system, experimental_result) VALUES
  ('COc1ccc(C(O)(C(=O)NC2C3CNCC32)C2CCCCC2)cc1 (stereo not drawn)', 'M2 muscarinic receptor (Rattus norvegicus, UniProt P10980)', '> 1000 nM'),
  ('O=C(N[C@H]1[C@@H]2CNC[C@@H]21)C(O)(c1ccccc1)C1CCC1 (stereo partly drawn)', 'M2 muscarinic receptor (Rattus norvegicus, UniProt P10980)', '100000 nM'),
  ('O=C(NC1C2CNCC21)C(O)(c1ccc(F)cc1)C1CCCCC1 (stereo not drawn)', 'M2 muscarinic receptor (Rattus norvegicus, UniProt P10980)', '> 1000 nM'),
  ('CC(C)(C)OC(=O)N(CCCCOC(=O)C(O)(c1ccc(F)cc1)c1ccc(F)cc1)C1C2CNCC21 (stereo not drawn)', 'M2 muscarinic receptor (Rattus norvegicus, UniProt P10980)', '> 1000 nM'),
  ('O=C(N[C@H]1[C@@H]2CNC[C@@H]21)C(O)(c1ccccc1)C1CC1 (stereo partly drawn)', 'M2 muscarinic receptor (Rattus norvegicus, UniProt P10980)', '> 10000 nM');

Switching to the query record.
Data request: Give the measured Ki of COC(C(=O)NC1C2CNCC21)(c1ccccc1)C1CCCCC1 (stereo not drawn) .
Data returned: > 1000 nM
